Tested on: Plasmodium falciparum
Experiment: NOVARTIS: Inhibition of Plasmodium falciparum 3D7 (drug-susceptible) proliferation in erythrocyte-based infection assay
Assay type: functional, organism-based
Conditions: Plasmodium falciparum, 3D7
pEC50: −log10 of the molar value.

compound	comparative.sign	pEC50
COC(=O)C1=CNC=C(C(=O)OC)C1c1cc(Br)ccc1OC	<	4.91
Cn1c2c([n+](C)c1CCl)C(=O)c1ccccc1C2=O	=	8.51
O=C1CN=C(c2ccccc2)c2cc(Cl)ccc2N1Cc1cc(=O)n2ccccc2n1	=	5.45
CC(C)CNc1nc(NCCCN2CCCCC2C)ncc1C(=O)NCc1ccccc1 (stereo not given)	=	6.63
O=C1C(Nc2ccc(F)cc2)=C(N2CCCCC2)C(=O)c2ccccc21	=	6.47
CCc1cccc(NS(=O)(=O)c2ccc3[nH]c(=O)c(=O)[nH]c3c2)c1	<	5.98
OCc1nc2ccccc2n1CCOc1ccccc1	<	5.90
COc1ccc(C(OCC(=O)N2CCN(Cc3ccccc3)CC2)c2ccc(F)cc2)cn1 (stereo not given)	=	6.13
COc1ccc(-c2cc(C3CCN(c4nc(N)c5cc(OC)c(OC)cc5n4)CC3)n[nH]2)cc1OC	=	6.69
CCOC(=O)C1CCN(C(=O)c2cc(C(C)(C)C)nn2Cc2ccc(Cl)cc2Cl)CC1	=	6.47
COc1ccc(C=CC(=O)NC(=O)c2ccccc2O)cc1	=	6.88
CC1=C(C=CC(C)C=NNC(=O)c2ccncc2)C(C)(C)CCC1 (stereo not given)	=	6.05
O=C(NCc1ccco1)c1ccc(OC2CCN(CC3CCCCC3)CC2)c(Cl)c1	=	7.02
COc1ccc(C2(Cc3ccccc3)NC(=O)NC2=O)cc1 (stereo not given)	=	5.87
Cc1ccc(C(C(=O)NCc2ccccc2)N(C(=O)c2snc(C(N)=O)c2N)c2ccccc2)o1 (stereo not given)	=	5.91

* * *

Tested on: Plasmodium falciparum
Experiment: NOVARTIS: Inhibition of Plasmodium falciparum 3D7 (drug-susceptible) proliferation in erythrocyte-based infection assay
Type: functional, organism-based
Settings: Plasmodium falciparum, 3D7
pEC50: −log10 of the molar value.
pEC50 below 6 gives Not fulfilled; pEC50 at or above it gives Fulfilled.

compound	cat
COc1ccc(S(=O)(=O)NCC2CCC(C(=O)NCC(OC)OC)CC2)cc1 (stereo not given)	Not fulfilled
COc1ccc2cc3[n+](cc2c1OC)CCc1cc2c(cc1-3)OCO2 [BERBERINE CHLORIDE]	Fulfilled
CCN(CC)CCNc1nc2cc(OC)c(OC)cc2c2nc(-c3ccccc3)nn12	Not fulfilled
CCCCn1c(=N)n(CC(O)c2ccc(Cl)c(Cl)c2)c2ccccc21 (stereo not given)	Fulfilled
CCN(CC)CCNc1ncnc2c1[nH]c1ccc(F)cc12	Fulfilled
O=C(O)CCNc1ccccc1[N+](=O)[O-]	Not fulfilled
COc1cc(C(=O)NCc2ccco2)ccc1OC1CCN(CC(c2ccccc2)c2ccccc2)CC1	Fulfilled
Cc1nc2sccn2c1-c1csc(Nc2ccccn2)n1	Fulfilled
COc1ccc(CNCCN2CCN(c3ccccc3)C[C@@H]2Cc2ccc(O)cc2)cc1	Fulfilled
O=C1c2ccccc2C2=Nc3ccccc3SC(c3ccccc3F)C12 (stereo not given)	Fulfilled
CC(=O)N(C1=C(N2CCOCC2)C(=O)c2ccccc2C1=O)c1cccc(Cl)c1	Fulfilled
CN1CCN(C(c2ccco2)c2sc3ncnn3c2O)CC1 (stereo not given)	Not fulfilled
CCC(=O)NCc1nnc(SCc2cccc(C(F)(F)F)c2)n1-c1cccc(OC)c1	Not fulfilled
N#Cc1c(N)nc(C(Cl)(Cl)Cl)nc1-c1ccccc1	Fulfilled
CCc1ccc(NC(=O)C2c3ccccc3C(=O)N(CC(C)C)C2c2cccs2)cc1 (stereo not given)	Not fulfilled
Cc1nc(-c2nc3c(s2)CN(C(=O)c2ccncc2)CC3)cs1	Fulfilled
N=c1c2c(n(Cc3ccc(Cl)cc3)c3c1CCC3)CCC2	Fulfilled
Cc1cc(C)c2cc(CN(CCN(C)C)C(=S)NCCCN(C)C)c(=O)[nH]c2c1	Not fulfilled
COc1ccc(C2C(C(N)=O)=C(C)Nc3ncnn32)cc1OC (stereo not given)	Fulfilled
Cc1cc(Nc2ccc(N(C)C)cc2)n2ncnc2n1	Not fulfilled
COC(=O)C1CCCCN1S(=O)(=O)c1ccc(C)cc1 (stereo not given)	Not fulfilled
CCN(CC)CCCC(C)N=c1[nH]c(C=Cc2ccccc2OC)nc2cc(Cl)ccc12 (stereo not given)	Fulfilled
CCCCCc1c(C)c(C#N)c2nc3ccccc3n2c1NCCN(CC)CC	Not fulfilled
NC(=O)CSc1nnc2ccc(-c3ccc4c(c3)OCO4)nn12	Not fulfilled
O=c1c(=Cc2ccc(-c3ccc([N+](=O)[O-])cc3Cl)o2)sc2nc3ccccc3n12	Not fulfilled
CN1C(=O)NC(c2cccnc2)C(C(=O)c2cccs2)C1(O)C(F)(F)F (stereo not given)	Not fulfilled
OC1CCCCC1C1(NC(=S)Nc2ccccc2)CCCCC1 (stereo not given)	Fulfilled
CCOc1cc(S(=O)(=O)N2CCCC3(CCCCC3)C2)c(OCC)cc1-n1cnnn1	Not fulfilled

* * *

Experiment: NOVARTIS: Cytotoxicity against human hepatocellular carcinoma cell line (Huh7)
Assay type: toxicity, cell-based, Huh-7
Conditions: Huh7 cells (hepatocellular carcinoma cell line)

compound	CC50
COc1ccc(CN2CCOc3ccc(C(C)(O)CN(C)C)cc3C2)cc1C (stereo not drawn)	> 100 µM
Clc1cccc(C(Nc2cccnc2)(c2ccccc2)c2ccccc2)c1	> 10 µM
O=C(CN1CCN(C(=O)c2ccccc2)CC1)Nc1ccc(-c2nc3cc(NC(=O)CN4CCN(C(=O)c5ccccc5)CC4)ccc3o2)cc1	> 100 µM
Oc1cccc(Nc2nc(NCc3ccco3)c3ccccc3n2)c1	11.5 µM
Cc1nc(-c2ccncc2)nc(NCCNc2ccc(C(F)(F)F)cn2)c1Cl	> 10 µM
COc1ccc(/C=C2/SC(Nc3ccc(F)cc3)=NC2=O)c(OC)c1	> 10 µM
Cc1c(NC(=S)N2CCOCC2)c(=O)n(-c2ccccc2)n1C	> 10 µM
Cc1cc(N)c2ccccc2[n+]1CCCCCCCCCC[n+]1c(C)cc(N)c2ccccc21 [DEQUALINIUM CHLORIDE]	31 µM

* * *

Test system: Plasmodium falciparum
Assay: NOVARTIS: Inhibition of Plasmodium falciparum W2 (drug-resistant) proliferation in erythrocyte-based infection assay
Type: functional, organism-based
Settings: Plasmodium falciparum, W2; read-out: EC50

line.notation	unit.abbreviation	comparative.sign	EC50
c1ccc(-c2nc(-c3ccc4cccnc4c3)n(-n3c(-c4ccc5cccnc5c4)nc(-c4ccccc4)c3-c3ccccc3)c2-c2ccccc2)cc1	µM	=	1.51
O=C(C1CCC1)N1CCOc2c(cc(-c3csc4ccccc34)cc2OCCc2ccccn2)C1	µM	=	0.515
CN(C(=O)CCNC(=O)Cn1cnc2ccccc2c1=O)C1CCCCC1	µM	>	0.636
COc1cc(NC(=O)Cn2ncc3c(=O)oc4ccccc4c32)cc(OC)c1OC	µM	=	7.83

* * *

Test system: Plasmodium falciparum
Assay: NOVARTIS: Inhibition of Plasmodium falciparum W2 (drug-resistant) proliferation in erythrocyte-based infection assay
Format: functional, organism-based
Details: Plasmodium falciparum, W2; read-out: EC50
pEC50: −log10 of the molar value.
Form field: pEC50 (one value per entry).

compound	comparative.sign	pEC50
O=S(=O)(c1ccc(Br)s1)N1CCN(c2ccccc2)CC1	=	6.40
Brc1ccc2c(c1)c1ccccc1n2CC1CO1 (configuration not stated)	=	5.65
COc1cccc(N2CCN(CCNCCOc3ccccc3)[C@@H](Cc3ccccc3)C2)c1	=	6.42
COc1cc(OC)c(N(C)C(=O)c2cc3c(s2)-c2ccccc2S(=O)(=O)C3)cc1Cl	=	6.75
Fc1cc(F)c(C2SCCN2C(=S)Nc2cccc(C(F)(F)F)c2)c(F)c1 (configuration not stated)	=	6.73
COc1ccc2nc(C)cc(Nc3ccc(Oc4ccc5ccccc5c4)c(Cl)c3)c2c1	=	6.69
CC(=O)Nc1ccc2c(c1)C(=O)N(C(C(=O)NC1CCCCC1)c1ccc([N+](=O)[O-])cc1)[C@@H](c1ccccc1)C(=O)N2 (some centres not stated)	<	6.06
Cc1sc2ncn(CC(=O)N(C)Cc3ccccc3)c(=O)c2c1S(=O)(=O)N1CCOCC1	<	6.11
COCCN(C(C)C(=O)NC(CN1CCCC1)c1ccccc1)S(=O)(=O)c1c(C)noc1C (configuration not stated)	=	6.39
CCN1/C(=C/c2cccc[n+]2C)C=Cc2ccccc21	=	6.28
CCN1/C(=C/c2sc3ccccc3[n+]2CC)C=Cc2cc(NC(C)=O)ccc21	=	6.65
CCOC(=O)C1(CC2CCCCO2)CCN(C(=O)Nc2cccc(SC)c2)CC1 (configuration not stated)	=	5.34

* * *

Form field: EC50 (one value per entry).
Tested on: Plasmodium falciparum
Test: NOVARTIS: Inhibition of Plasmodium falciparum 3D7 (drug-susceptible) proliferation in erythrocyte-based infection assay
Format: functional, organism-based
Details: Plasmodium falciparum, 3D7
measurement.kind: EC50

compound	measurement.kind	result.value
C=CCOc1c(Br)cc(C=c2sc3n(c2=O)C(c2ccc(OC)c(OC)c2)C(C(=O)OCC)=C(C)N=3)cc1OC (centres undefined)	EC50	> 12.5 µM
CC(C)(C)CC(C)(C)c1ccc(OCC(=O)NN=C2C(=O)Nc3ccccc32)c([N+](=O)[O-])c1	EC50	> 1 µM
CC(c1nc2ccccc2c(=O)n1-c1ccc(Br)cc1)N1CCN(S(=O)(=O)c2ccc3ccccc3c2)C(C)C1 (centres undefined)	EC50	> 1.25 µM
O=C(CN1CCCC1)N1N=C(c2cccs2)CC1c1ccc(F)cc1 (centres undefined)	EC50	> 12.5 µM
COc1ccc2[nH]cc(CCNC(=O)Oc3ccccc3)c2c1	EC50	> 1.29 µM
CCC1=NN2C(=N)/C(=C/c3ccc(OCCOc4ccc(Br)cc4)c(OC)c3)C(=O)N=C2S1	EC50	> 1.25 µM
CC(=O)N(Cc1ccc2c(c1)OCO2)C1CC(=O)N(c2ccccc2)C1=O (centres undefined)	EC50	> 1.25 µM
CCOC(=O)c1c(NC(=O)CSc2nnc(CNC(=O)c3cccc(C)c3)n2-c2cccc(C)c2)sc2c1CCC2	EC50	> 1.59 µM
O=C1CC(N2CCCCCC2)C(=O)N1c1ccc(N2C(=O)CC(N3CCCCCC3)C2=O)cc1 (centres undefined)	EC50	> 1.25 µM
